This collection of values is drawn from PubChem BioAssay AID623996.

# System tested: Multidrug resistance protein CDR1 (Candida albicans) (UniProt P43071)
# Sequence (P43071 whole entry, looked up): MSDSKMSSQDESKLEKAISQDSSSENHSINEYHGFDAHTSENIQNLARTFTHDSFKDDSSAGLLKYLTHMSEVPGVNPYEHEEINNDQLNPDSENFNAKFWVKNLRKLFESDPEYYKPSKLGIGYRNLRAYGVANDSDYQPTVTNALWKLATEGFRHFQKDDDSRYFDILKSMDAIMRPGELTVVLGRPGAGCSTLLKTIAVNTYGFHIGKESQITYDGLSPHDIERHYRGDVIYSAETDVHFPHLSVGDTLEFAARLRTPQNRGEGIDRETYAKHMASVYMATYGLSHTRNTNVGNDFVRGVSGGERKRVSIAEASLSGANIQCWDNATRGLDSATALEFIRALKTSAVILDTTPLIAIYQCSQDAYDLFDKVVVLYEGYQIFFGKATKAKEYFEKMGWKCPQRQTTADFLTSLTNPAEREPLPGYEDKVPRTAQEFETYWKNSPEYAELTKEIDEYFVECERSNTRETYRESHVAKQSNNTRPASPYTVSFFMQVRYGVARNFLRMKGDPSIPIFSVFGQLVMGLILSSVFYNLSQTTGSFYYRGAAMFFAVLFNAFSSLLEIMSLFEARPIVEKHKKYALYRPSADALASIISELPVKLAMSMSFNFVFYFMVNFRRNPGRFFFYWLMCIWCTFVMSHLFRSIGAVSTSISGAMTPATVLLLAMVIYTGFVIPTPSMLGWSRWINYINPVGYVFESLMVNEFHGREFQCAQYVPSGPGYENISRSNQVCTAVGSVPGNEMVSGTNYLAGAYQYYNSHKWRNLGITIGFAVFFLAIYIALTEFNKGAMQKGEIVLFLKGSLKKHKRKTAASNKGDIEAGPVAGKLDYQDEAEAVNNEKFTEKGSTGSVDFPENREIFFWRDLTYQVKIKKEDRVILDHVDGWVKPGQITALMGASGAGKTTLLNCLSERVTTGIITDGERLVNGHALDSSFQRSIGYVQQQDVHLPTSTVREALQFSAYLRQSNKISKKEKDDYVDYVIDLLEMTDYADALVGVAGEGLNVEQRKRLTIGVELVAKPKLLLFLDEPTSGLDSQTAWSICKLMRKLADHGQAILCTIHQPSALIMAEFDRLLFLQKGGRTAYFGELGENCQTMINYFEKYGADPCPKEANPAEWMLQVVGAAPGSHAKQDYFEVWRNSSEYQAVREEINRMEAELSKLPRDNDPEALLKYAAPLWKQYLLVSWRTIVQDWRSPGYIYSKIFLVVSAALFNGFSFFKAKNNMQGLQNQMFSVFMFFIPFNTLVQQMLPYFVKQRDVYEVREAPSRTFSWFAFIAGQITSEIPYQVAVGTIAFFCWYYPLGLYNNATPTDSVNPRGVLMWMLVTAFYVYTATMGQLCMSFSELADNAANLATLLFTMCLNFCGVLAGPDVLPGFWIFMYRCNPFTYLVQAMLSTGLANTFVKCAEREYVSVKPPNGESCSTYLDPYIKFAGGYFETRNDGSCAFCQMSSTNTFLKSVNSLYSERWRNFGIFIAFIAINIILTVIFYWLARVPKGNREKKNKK
# Assay text: Candida albicans Cdr1 pump inhibition curves – singleplex, Cherry Pick2 set, dose response (AID 623996)
# Protocol conditions: S. cerevisiae AD/CaCDR1, Nile Red efflux inhibition, flow cytometry; series mostly up to 100 µM
Entries with a potency or affinity are not part of this list. Active and inactive are the calls of the source.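 Rule for the calls: active = fitted concentration giving half the maximal Nile Red retention below 100 µM; inactive = the rest.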
Assay readout: outcome

Past entries and their recorded results:
Compound: NC1=NC[C@H](Cc2ccccc2)N1CCCCC1CCCCC1
Endpoint value: inactive
//
Compound: Cc1ccc(C)c(N2CCN(C(=O)C3CCCN(c4ncnc5c4nc4n5CCCCC4)C3)CC2)c1 (stereo not given)
Endpoint value: inactive
//
Compound: Cc1ccc(O)c(C(=O)c2cnc3c(c2)CN(C)C(=O)N3)c1
Endpoint value: inactive
//
Compound: Nc1ccc(C(=O)OCCc2ccccc2)cc1
Endpoint value: inactive
//
Compound: COc1ccc(C2CC(c3cccc(OC)c3)=NN2c2ccc(S(N)(=O)=O)cc2)cc1 (stereo not given)
Endpoint value: inactive

Look at each compound and report its outcome.
1. O=C(c1ccoc1)N1CCC2(CC1)Oc1ccc(F)cc1C(=O)C21CC(c2ccc(Cl)cc2)=NO1 (stereo not given)
2. OCCN1CCN(CC/C=C2/c3ccccc3Sc3ccc(C(F)(F)F)cc32)CC1

OUT:
1. inactive
2. inactive

Provide each entry's outcome from the list below.
1. COc1ccc2nc(NC(=O)c3cccs3)sc2c1
2. O=C(CSc1nnc(Cc2cccs2)n1Cc1ccco1)Nc1ccc(Br)cc1
3. O=C(C[n+]1cc(-c2ccc(F)cc2)n2c1CCC2)N1c2ccccc2Sc2ccccc21

OUT:
inactive
inactive
inactive
